Assay: NCI Yeast Anticancer Drug Screen. Data for the cln2 rad14 strain (AID 165);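 also: 0% = growth equal to vehicle treated cultures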
Settings: S. cerevisiae cln2 rad14 strain, at 50.0 µM, active compounds read high
About 79,000 compounds went through this panel and 15% of them were active in at least one assay; those are over-represented in the sample as a whole.
Listing of entries alongside the reported growth inhibition.
PARAMETER: growth inhibition (%)

[
  {
    "COMPOUND": "O=C1CC(=C=Nc2ccccc2)C(=O)N1c1ccccc1",
    "RESULT": -33.5
  },
  {
    "COMPOUND": "CN(Nc1c([N+](=O)[O-])cc([N+](=O)[O-])cc1[N+](=O)[O-])c1ccc2ccccc2c1",
    "RESULT": 24.2
  },
  {
    "COMPOUND": "CCOC(=O)c1ccc(NC(=O)Oc2cc(C)c(Cl)c(C)c2)cc1",
    "RESULT": 6.35
  },
  {
    "COMPOUND": "CCOC(=O)c1cnc2cc3c(cc2c1Nc1cccc(C(F)(F)F)c1)OCO3",
    "RESULT": -6.45
  },
  {
    "COMPOUND": "CC1=CC(=O)CC(C)(C)C1(O)/C=C/C(C)=C/C(=O)O (stereo not given)",
    "RESULT": -37
  },
  {
    "COMPOUND": "CCCC(=O)OCC(C)(C)CC(C)C",
    "RESULT": -5.55
  },
  {
    "COMPOUND": "CN1C(=O)CC(NC(=O)CNC(=O)c2ccccc2)C1=O (stereo not given)",
    "RESULT": 21.1
  },
  {
    "COMPOUND": "NC(CCCCC(N)C(=O)c1ccccc1)C(=O)c1ccccc1 (stereo not given)",
    "RESULT": -15.9
  },
  {
    "COMPOUND": "NC(=S)NNC(=O)c1ccncc1",
    "RESULT": 10.4
  },
  {
    "COMPOUND": "CC(C)(C)C(=O)Nc1ccccc1",
    "RESULT": 1.55
  },
  {
    "COMPOUND": "Cc1ccc(-c2cc(-c3ccccc3)c(C#N)c(=O)[nH]2)cc1",
    "RESULT": 8.55
  },
  {
    "COMPOUND": "CC(=O)SC1CC(=O)OC1=O (stereo not given)",
    "RESULT": 7.8
  },
  {
    "COMPOUND": "CCCCCC(=O)c1ccc2[nH]c3c(C)cc([N+](=O)[O-])c(C)c3c2c1",
    "RESULT": -2.8
  },
  {
    "COMPOUND": "Cn1cnc([N+](=O)[O-])c1Sc1nc(N)nc2c1ncn2C1OC(CO)C(O)C1O (stereo not given)",
    "RESULT": 25.1
  },
  {
    "COMPOUND": "N#CC(=C1C=CC(=NO)C=C1)c1ccc(Cl)cc1",
    "RESULT": -124
  },
  {
    "COMPOUND": "C/C(CC(=O)c1ccccc1)=C1\\C(=O)NN(c2ccccc2)C1=O",
    "RESULT": 56.9
  },
  {
    "COMPOUND": "CC(CO)NCc1ccccc1 (stereo not given)",
    "RESULT": 3.95
  },
  {
    "COMPOUND": "CCCCCCC(O)CCCCCC",
    "RESULT": -24.6
  },
  {
    "COMPOUND": "COc1cc2c[n+]3ccc4ccccc4c3c(N)c2cc1OC",
    "RESULT": 15.8
  },
  {
    "COMPOUND": "CC1(C)C(=O)C(C)(C)C1=NN",
    "RESULT": 3
  },
  {
    "COMPOUND": "CCC(CO)(CO)[N+](=O)[O-]",
    "RESULT": 5
  },
  {
    "COMPOUND": "O=[N+]([O-])c1ccc(N/N=C\\C2C=CCCC2)c([N+](=O)[O-])c1 (stereo not given)",
    "RESULT": -31.8
  },
  {
    "COMPOUND": "Nc1nc(SCc2ccccc2[N+](=O)[O-])c2[nH]cnc2n1",
    "RESULT": 14.1
  },
  {
    "COMPOUND": "Nc1cc(N)nc(S(=O)O)n1",
    "RESULT": 10.7
  },
  {
    "COMPOUND": "C=CCNC(=S)NC=C(C(N)=O)C(N)=O",
    "RESULT": -19.5
  }
]
